Origin of measurements: PubChem BioAssay (NCI)

# Test system: RXF 393 renal
# procedure-details: NCI tumour cell line growth inhibition, 48 h
Hi, to clarify the labels: yes (1) covers TGI from 5 µM upward, no (0) covers anything below 5 µM.

>>> label("CN=C(N)N/N=C(\\c1ccccc1)c1ccc(Br)cc1")
"no (0)"
>>> label("O=C(Cc1nc2ccc(C(=O)c3ccccc3)cc2[nH]c1=O)C(=O)Nc1ccc(Br)cc1")
"yes (1)"
>>> label("CCOc1ccc(S(=O)(=O)/N=C2\\C=C(SCC(=O)O)C(=O)c3ccccc32)cc1")
"yes (1)"
>>> label("Cc1nn(-c2ccc(S(=O)(=O)[O-])cc2)c([O-])c1N=[N+](C)c1ccc(-c2ccc(N=Nc3ccc4c(S(=O)(=O)[O-])cc(S(=O)(=O)[O-])c(N)c4c3[O-])c([O-])c2)cc1[O-].[Cu+2].[Cu+2].[Na+]")
"yes (1)"
>>> label("CC(=O)OC1=C2CC3(C)OC(=O)CC(C)(C)C3=CC=C2C=C(C(C)C)C1=O (stereo not given)")
"no (0)"
>>> label("CC(=O)OCC1OC(N2C(=O)/C(=C\\c3ccc(Cl)cc3)C(N)=Nc3ccccc32)C(OC(C)=O)C(OC(C)=O)C1OC(C)=O (stereo not given)")
"yes (1)"
>>> label("COc1cccc(/C=C/C(=O)c2cc3c(N)c(C(=O)Nc4ccccc4C)sc3nc2C)c1")
"no (0)"
>>> label("C=CC(=O)Nc1cccc(-c2nc(SC)nc(Nc3ccccc3OC)c2C#N)c1")
"yes (1)"
>>> label("CCOC(=O)c1cc(=C2\\CCN(CC(C)CC)C2=S)/c(=C(/O)CC)[nH]1 (stereo not given)")
"yes (1)"
>>> label("NC(CO)Cc1cnc[nH]1 (stereo not given)")
"yes (1)"

---

In this section, each of the compounds is paired with its reported TGI.
# Tested on: 786-0 renal
# procedure-details: NCI tumour cell line growth inhibition, 48 h
property-label: TGI

>>> test_result("CC(C)(C)OC(=O)NC(C)(C)C(=O)NCCC(=O)O")
"> 100 µM"
>>> test_result("CCOC(=O)C(OCC1CC=CCC1)Sc1ccccc1 (stereo not given)")
"> 100 µM"
>>> test_result("CN1CCN(Cc2ccc(C(=O)Nc3cncc(C#Cc4cnc(N)c5ccccc45)c3)cc2C(F)(F)F)CC1")
"3.25 µM"
>>> test_result("Cc1ccc(N=Nc2c3c(c(O)c4ccccc24)CCC(C)(C)O3)cc1")
"> 100 µM"
>>> test_result("c1ccc([P+](CCNCCNCC[P+](c2ccccc2)(c2ccccc2)c2ccccc2)(c2ccccc2)c2ccccc2)cc1")
"> 100 µM"

---

# Test system: EKVX NSCLC
# procedure-details: NCI tumour cell line growth inhibition, 48 h
Quick list: TGI per entry.
property-label: TGI

>>> test_result("CN(C)/C(=N/C(=S)Nc1ccccc1)SCc1ccccc1")
"> 100 µM"
>>> test_result("OCC1CCCC(n2cnc3c(=S)nc[nH]c32)O1 (stereo unspecified)")
"> 100 µM"
>>> test_result("C=CCSC[C@H](NC(=O)COc1ccccc1)C(=O)NC(C(=O)OCc1ccc([N+](=O)[O-])cc1)=C(C)C")
"> 100 µM"
>>> test_result("CCSc1nnc(CSc2nc(-c3ccccc3)c(-c3ccccc3)[nH]2)n1-c1ccccc1")
"63.5 µM"
>>> test_result("COC(=O)C1=C(C(=O)OC)C2OC1C1C2C2(C)C(C)=C(C)C1(C)S2=O (stereo unspecified)")
"27.6 µM"
>>> test_result("CCOC(=O)c1cc(C2(O)CCN(Cc3ccccc3)C2=O)c(-c2cc(C)no2)[nH]1 (stereo unspecified)")
"> 100 µM"
>>> test_result("O=C1CC(c2ccco2)C2(C(=O)NC(=O)NC2=O)C(c2ccco2)C1 (stereo unspecified)")
"> 75 µM"
>>> test_result("CC(C)(C)OC(=O)n1cc(CNC(=S)Nc2ccccc2)c2ccccc21")
"21.5 µM"
>>> test_result("N#CC1=C(N)OC2=C(CSc3ccccc32)C1c1ccc(Br)cc1 (stereo unspecified)")
"11.4 µM"
>>> test_result("C/C(=N\\NC(=S)NC(C)C)c1nc2ncccc2[nH]1")
"> 69.7 µM"
>>> test_result("COc1cc2oc(-c3ccc(O)cc3)c(OC3OC(C)C(O)C(O)C3O)c(=O)c2c(O)c1OC (stereo unspecified)")
"> 100 µM"
>>> test_result("O=C(c1cccs1)c1c(C(F)(F)F)n([O-])c2ccccc2[n+]1=O")
"1.55 µM"
>>> test_result("CC(C)(C)OC(=O)NCCCCC(NC(=O)OCc1ccccc1)C(N)=O (stereo unspecified)")
"> 100 µM"
>>> test_result("CC(C)=CCN1CC(C)C(=O)Nc2cc(Cl)ccc21 (stereo unspecified)")
"94.8 µM"
>>> test_result("COc1ccc(/C=C/C=C(/C#N)C(N)=S)cc1")
"> 100 µM"
>>> test_result("CCOC(=O)CCC(NC(=O)c1ccc(OCc2nc3cc(C(F)(F)F)ccc3nc2-c2ccccc2)cc1)C(=O)OCC (stereo unspecified)")
"> 100 µM"
>>> test_result("O=C1CCCN(c2ccccc2)N1")
"> 100 µM"
>>> test_result("O=C(/C=C/c1ccccc1)/C=C/c1ccccc1O")
"39.8 µM"
>>> test_result("O=C(Nc1cccc(-n2ccc3c(NC(=O)c4ccccc4)nccc32)c1)c1cccc(C(F)(F)F)c1")
"> 100 µM"
>>> test_result("COc1ccc(-c2c(C#N)c(S)n(C3OC(COC(C)=O)C(OC(C)=O)C(OC(C)=O)C3OC(C)=O)c(=O)c2C#N)cc1 (stereo unspecified)")
"> 100 µM"
>>> test_result("O=c1c2ccccc2[nH]c(=S)n1-c1ccc(N=Nc2cccc3c(O)cccc23)cc1")
"> 100 µM"
>>> test_result("CC(C)(C)c1cc(O)c(O)c(C(C)(C)C)c1")
"17.5 µM"
>>> test_result("Oc1ccccc1C(c1cc2c(cc1O)OCO2)N1CCOCC1 (stereo unspecified)")
"> 100 µM"
>>> test_result("C=CC1=CSNN1")
"> 100 µM"
>>> test_result("C1COCCN1.C1COCCN1.N.N.[Cl-].[Pt+2]")
"> 100 µM"
>>> test_result("CCOC(=O)C1(CC)CCCCC(=O)N1 (stereo unspecified)")
"> 100 µM"
>>> test_result("Nc1nc(Cl)cc(NCC2(CO)CC(CCc3ccccc3)C2)n1 (stereo unspecified)")
"> 100 µM"
>>> test_result("CSc1nc(SC)c2c(CN=[N+]=[N-])c(Br)n(Cc3ccccc3)c2n1")
"> 100 µM"
>>> test_result("Cc1ccc2c(c1C)CC1(Cc3c(ccc4c3CCC4)C1=O)C2=O (stereo unspecified)")
"> 100 µM"
>>> test_result("c1sc(NC2=NCCO2)c2c1CCCC2")
"> 100 µM"
>>> test_result("Cc1cc2c(cc1C)[n+](=O)c(C(=O)C/C(=N/NC(=O)c1ccccc1O)C(=O)Nc1ccccc1C(C)C)c(C)n2[O-]")
"> 100 µM"
>>> test_result("NC(CO)Cc1cnc[nH]1 (stereo unspecified)")
"> 100 µM"
>>> test_result("CC1C(c2cc(C(C)(C)C)c(O)c(C(C)(C)C)c2)c2cc3c(cc2OC1N1CCOCC1)OCO3 (stereo unspecified)")
"> 100 µM"
>>> test_result("COc1ncc(C=C(C#N)C#N)c(OC)n1")
"> 100 µM"
>>> test_result("COc1ccc(N2C(=O)C3c4[nH]c5ccc([N+](=O)[O-])cc5c4C4CCC(C(C)(C)C)CC4C3C2=O)cc1 (stereo unspecified)")
"> 100 µM"
>>> test_result("CC(CO)(CO)N=Cc1cc(I)cc(I)c1O")
"54.2 µM"
>>> test_result("CC(C)(C)C(=O)C(CC(=O)c1ccccc1)C(=O)C(C)(C)C")
"> 100 µM"
>>> test_result("O=c1[nH]c2nc3ccccc3c(=O)n2/c1=C/c1ccc(O)cc1")
"> 100 µM"
>>> test_result("C#Cc1cnc(=O)n(C2CC(O)C(CO)O2)c1 (stereo unspecified)")
"> 100 µM"
>>> test_result("CCOP(=O)(OCC)[C@H](O)c1ccsc1")
"> 100 µM"
>>> test_result("Cc1cccc(N2C(=O)C3ON(C(C(N)=O)c4ccccc4)C(c4c5ccccc5c(Cl)c5ccccc45)C3C2=O)c1C (stereo unspecified)")
"22.5 µM"
>>> test_result("O=C1CC(O)c2c1csc2Br (stereo unspecified)")
"> 100 µM"
>>> test_result("CSC1=NC=CCN1C")
"> 100 µM"
>>> test_result("C#CCNC(=O)NC(CCCNC(=O)OCc1ccccc1)C(=O)OCc1ccccc1 (stereo unspecified)")
"> 100 µM"
>>> test_result("CC1(C)CC2(C)CC1CC2O (stereo unspecified)")
"> 100 µM"
>>> test_result("CCOC(=O)C(OCC1CC=CCC1)Sc1ccccc1 (stereo unspecified)")
"> 100 µM"
